The measured values listed here are drawn from PubChem BioAssay.

- Target: NADPH oxidase 4 (Homo sapiens) (UniProt Q9NPH5)
- Sequence (Q9NPH5 whole entry, looked up): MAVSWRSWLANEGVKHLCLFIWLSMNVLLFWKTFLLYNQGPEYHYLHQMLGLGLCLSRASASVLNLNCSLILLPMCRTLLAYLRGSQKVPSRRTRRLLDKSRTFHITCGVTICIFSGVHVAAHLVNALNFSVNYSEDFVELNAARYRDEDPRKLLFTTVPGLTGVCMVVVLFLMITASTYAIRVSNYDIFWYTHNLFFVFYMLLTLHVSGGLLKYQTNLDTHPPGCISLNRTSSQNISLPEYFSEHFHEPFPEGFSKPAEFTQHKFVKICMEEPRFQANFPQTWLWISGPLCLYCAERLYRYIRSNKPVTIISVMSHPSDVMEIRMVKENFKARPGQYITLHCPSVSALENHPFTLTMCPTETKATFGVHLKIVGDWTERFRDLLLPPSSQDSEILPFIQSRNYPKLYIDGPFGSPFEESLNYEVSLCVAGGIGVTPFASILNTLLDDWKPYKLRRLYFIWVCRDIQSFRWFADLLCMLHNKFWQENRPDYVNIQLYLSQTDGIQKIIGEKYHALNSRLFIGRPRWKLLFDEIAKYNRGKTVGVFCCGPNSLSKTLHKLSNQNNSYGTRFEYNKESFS
- Experiment description: NOX4-dependent H2O2 signal modulators, primary screen, NOX inhibitor project, cell-based, HEK293-NOX4, tetracycline-induced, Amplex Red fluorescence (AID 1160)
- Condition context: 45 min, higher = more signal, called active from +8 up or from −8 down
As shown below, each of these molecules has a reported z-score value.

{"Molecule": "O=C1O[C@H](c2ccccc2)[C@H](c2ccccc2)N2[C@H]1[C@@H](C(=O)O)[C@]1(C(=O)Nc3ccc(C#CC4(O)CCCCCC4)cc31)[C@H]2c1ccc(O)cc1", "Target": "NADPH oxidase 4 (Homo sapiens) (UniProt Q9NPH5)", "z-score": -0.353}
{"Molecule": "O=C1OCCC/C=C\\[C@H]2OC34C=CCN(c5ccc6ccccc6c5)C(=O)[C@H]3N(CCCO)C(=O)[C@@H]4C12 (stereo partly drawn)", "Target": "NADPH oxidase 4 (Homo sapiens) (UniProt Q9NPH5)", "z-score": 1.14}
{"Molecule": "CCOC(=O)C1=C[C@@H](C(C)(C)C)N(S(=O)(=O)c2ccc(C)cc2)[C@H]1c1ccc(C)cc1", "Target": "NADPH oxidase 4 (Homo sapiens) (UniProt Q9NPH5)", "z-score": -0.25}
{"Molecule": "CC(C)CNC(=O)[C@@]1(c2ccc([N+](=O)[O-])cc2)CC(=O)N(C2CCCCC2)[C@@H]1c1ccc(CO)cc1", "Target": "NADPH oxidase 4 (Homo sapiens) (UniProt Q9NPH5)", "z-score": 0.581}
{"Molecule": "C=C(COC)/C(=C/C[C@H](OC(C)=O)c1cccc(OCCO)c1)c1cnc2ccccc2c1", "Target": "NADPH oxidase 4 (Homo sapiens) (UniProt Q9NPH5)", "z-score": 0.228}
{"Molecule": "CN(C)C(=O)[C@@]1(Cc2ccccc2)COC(c2ccc(OCCCO)cc2)=N1", "Target": "NADPH oxidase 4 (Homo sapiens) (UniProt Q9NPH5)", "z-score": 0.108}
{"Molecule": "COCCCNC(=O)[C@@]1(Sc2ccc(C)cc2)CC(=O)N(C(C)C)[C@@H]1c1ccc(CO)cc1I", "Target": "NADPH oxidase 4 (Homo sapiens) (UniProt Q9NPH5)", "z-score": -1.47}
{"Molecule": "CO[C@H]1O[C@H](CO)[C@@H](OC(=O)CCc2ccccc2)[C@H](OC(=O)c2cc3ccccc3[nH]2)[C@H]1OC(=O)c1cc2ccccc2[nH]1", "Target": "NADPH oxidase 4 (Homo sapiens) (UniProt Q9NPH5)", "z-score": 0.0901}
{"Molecule": "O=C1C2C=CC(C(O)c3ccc(I)cc3)N(Nc3ccccc3)C2C(=O)N1c1ccccc1 (stereo not drawn)", "Target": "NADPH oxidase 4 (Homo sapiens) (UniProt Q9NPH5)", "z-score": -3.86}
{"Molecule": "COCCOC(=O)N1C(=O)[C@@]2(c3cc(C#CC4=CCCCC4)ccc31)[C@H](C(=O)N1CCCCCCC1)[C@H]1C(=O)O[C@H](c3ccccc3)[C@H](c3ccccc3)N1[C@@H]2c1ccc(OCCO)cc1", "Target": "NADPH oxidase 4 (Homo sapiens) (UniProt Q9NPH5)", "z-score": 0.567}
{"Molecule": "COC(=O)[C@@]1(Cc2ccccc2CN=[N+]=[N-])N=C(c2ccc(OCCCO)cc2)O[C@H]1c1ccccc1", "Target": "NADPH oxidase 4 (Homo sapiens) (UniProt Q9NPH5)", "z-score": -0.348}
{"Molecule": "COCCOC(=O)N1C(=O)[C@@]2(c3ccccc31)[C@H](c1ccccc1OCCO)N1[C@H](c3ccccc3)[C@H](c3ccccc3)OC(=O)[C@H]1[C@@H]2C(=O)N1CCCCCCC1", "Target": "NADPH oxidase 4 (Homo sapiens) (UniProt Q9NPH5)", "z-score": -1.29}
{"Molecule": "COc1cc(NN2C(C(O)C3CCCCC3)C=CC3C(=O)N(c4ccccc4)C(=O)C32)cc(OC)c1OC (stereo not drawn)", "Target": "NADPH oxidase 4 (Homo sapiens) (UniProt Q9NPH5)", "z-score": -5.15}
{"Molecule": "C=CCC(OC(C)=O)[C@@H]1[C@@H](N(Cc2ccc(-c3ccccc3)cc2)C(=O)Cc2ccc(F)cc2)c2cc(OCCCO)ccc2N1C(=O)Cc1ccc2ccccc2c1 (stereo partly drawn)", "Target": "NADPH oxidase 4 (Homo sapiens) (UniProt Q9NPH5)", "z-score": 0.512}
{"Molecule": "C=C(C(=O)CC[C@H](OC(=O)c1ccccc1-c1ccccc1C(=O)O)c1ccccc1OCCO)C(C)C", "Target": "NADPH oxidase 4 (Homo sapiens) (UniProt Q9NPH5)", "z-score": -0.13}
{"Molecule": "COC(=O)[C@@]1(Cc2ccc(F)cc2)[C@H]2c3cc(C(=O)N4CCCC4)n(C)c3C[C@H]2CN1C(=O)c1ccccc1", "Target": "NADPH oxidase 4 (Homo sapiens) (UniProt Q9NPH5)", "z-score": -0.466}
{"Molecule": "C=CCC(OC(C)=O)[C@@H]1[C@@H](N(Cc2ccc(-c3cccc(C(F)(F)F)c3)o2)C(=O)c2cccc3ccccc23)c2cc(OCCCO)ccc2N1C(=O)Cc1ccc(OC)cc1 (stereo partly drawn)", "Target": "NADPH oxidase 4 (Homo sapiens) (UniProt Q9NPH5)", "z-score": -1.73}
{"Molecule": "COC(=O)[C@@]1(Cc2ccccc2CN=[N+]=[N-])N=C(c2ccc(OCCCO)cc2)O[C@H]1c1ccccc1CN=[N+]=[N-]", "Target": "NADPH oxidase 4 (Homo sapiens) (UniProt Q9NPH5)", "z-score": -0.00368}
{"Molecule": "COC(=O)C(CC#Cc1ccc2c(c1)[C@]1(C(=O)N2)[C@H](C(=O)Nc2nc3ccccc3s2)[C@H]2C(=O)O[C@H](c3ccccc3)[C@H](c3ccccc3)N2[C@@H]1c1ccc(OCCO)cc1)C(=O)OC", "Target": "NADPH oxidase 4 (Homo sapiens) (UniProt Q9NPH5)", "z-score": 0.326}
{"Molecule": "COCC1=C2[C@@H](CCc3ccccc3)OB(O)C[C@@H]2[C@@H]2C(=O)N(C)C(=O)[C@@H]2C1", "Target": "NADPH oxidase 4 (Homo sapiens) (UniProt Q9NPH5)", "z-score": 0.762}
{"Molecule": "O=C(O)[C@H]1C[C@H]2C(=O)N[C@@H](Cc3ccccc3)C(=O)N2[C@H]1c1cccc(OCCO)c1", "Target": "NADPH oxidase 4 (Homo sapiens) (UniProt Q9NPH5)", "z-score": -4.87}
{"Molecule": "O=C1NC(=O)C2C1C=CC(C(O)c1ccccn1)N2Nc1ccc(Cl)cc1Cl (stereo not drawn)", "Target": "NADPH oxidase 4 (Homo sapiens) (UniProt Q9NPH5)", "z-score": -4.83}
{"Molecule": "COc1cc(NN2C(C(O)c3ccccc3)C=CC3C(=O)N(C)C(=O)C32)cc(OC)c1OC (stereo not drawn)", "Target": "NADPH oxidase 4 (Homo sapiens) (UniProt Q9NPH5)", "z-score": -5.77}
{"Molecule": "COc1ccc([Si](C)(C)[C@H]2[C@H](CC(=O)N3Cc4ccccc4C[C@H]3CO)O[C@@]3(C(=O)N(Cc4ccc(N5C(=O)c6cccc7cccc5c67)cc4)c4ccccc43)[C@@H]2C)cc1", "Target": "NADPH oxidase 4 (Homo sapiens) (UniProt Q9NPH5)", "z-score": 0.252}
{"Molecule": "CC(C)c1ccc(NN2C(C(O)Cc3ccccc3)C=CC3C(=O)N(c4ccccc4)C(=O)C32)cc1 (stereo not drawn)", "Target": "NADPH oxidase 4 (Homo sapiens) (UniProt Q9NPH5)", "z-score": -3.62}
{"Molecule": "CCCCCCCCCCC(O)C1C=CC2C(=O)N(C)C(=O)C2N1Nc1cc(OC)c(OC)c(OC)c1 (stereo not drawn)", "Target": "NADPH oxidase 4 (Homo sapiens) (UniProt Q9NPH5)", "z-score": -4.98}
{"Molecule": "CC(C)C(=C=CC[C@@H](O)c1cccc(OCCO)c1)C[C@@H](O)COCc1ccccc1", "Target": "NADPH oxidase 4 (Homo sapiens) (UniProt Q9NPH5)", "z-score": -1.2}
{"Molecule": "COc1ccc(C#Cc2ccc3c(c2)[C@]2(C(=O)N3)[C@H](C(=O)N3CCCCCCC3)[C@H]3C(=O)O[C@H](c4ccccc4)[C@H](c4ccccc4)N3[C@@H]2c2ccc(O)cc2)cc1", "Target": "NADPH oxidase 4 (Homo sapiens) (UniProt Q9NPH5)", "z-score": 0.174}
